# composite z-score per entry
Tested on: Chordin-like protein 2 (CHRDL2)
Assay: CHRDL2 small-molecule binders, primary screen, biochemical, small-molecule microarray, 635 nm fluorescence (AID 1126);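 also: printed compound slides probed with Chrdl2 protein at 4 µg/mL for 1 h at 4 C; score merges 667 nm emission intensity with signal to noise over three replicate slides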
Details: small-molecule microarray binding, fluorescence 635 nm; higher = more signal
API note: the answer field is a bare number with no unit suffix.

The following compounds have reported results that may help.
| Compound | composite z-score |
| --- | --- |
| CC(C)[Si](C#CCCCC#N)(O[C@H](c1ccccc1)c1cn([C@H](CO)Cc2ccccc2)nn1)C(C)C | -0.006 |
| O=C1O[C@H](c2ccccc2)[C@H](c2ccccc2)N2[C@H]1[C@@H](C(=O)Nc1nc3ccccc3s1)[C@]1(C(=O)Nc3ccc(C#CCCO)cc31)[C@H]2c1ccc(O)cc1 | 0.172 |
| COC(=O)c1ccc([C@H](NC(=O)c2ccco2)[C@]2(C)C[C@H]2C2CCCCC2)cc1 | -1.17 |
| O=C1OCCC/C=C\[C@H]2OC34C=CCN(CCN5CCOCC5)C(=O)[C@H]3N(CCCCCCO)C(=O)[C@@H]4C12 (some centres undefined) | -0.394 |
| COc1ccc([Si](C)(C)[C@H]2[C@H](CCO)O[C@@]3(C(=O)N(Cc4cccc(N5C(=O)COc6ccccc65)c4)c4ccccc43)[C@@H]2C)cc1 | 0.0083 |

composite z-score on Chordin-like protein 2 (CHRDL2) for "COC(=O)c1cn(C[C@@H](Cc2ccccc2)NC(=O)N[C@H](CO)CCc2oc(C(C)=O)c(C(=O)OC)c2C(=O)OC)nn1" is 1.15

composite z-score on Chordin-like protein 2 (CHRDL2) for "O=C(NCc1ccccc1)[C@@H]1c2ccccc2C(=O)N(Cc2ccccc2C(F)(F)F)[C@H]1c1ccc(CO)cc1" is -1.2

composite z-score on Chordin-like protein 2 (CHRDL2) for "COc1ccc([Si](C)(C)[C@H]2[C@H](CC(=O)N(CCO)Cc3ccccc3)O[C@@]3(C(=O)N(Cc4cccc(N5CCOC5=O)c4)c4ccccc43)[C@@H]2C)cc1" is 0.623

composite z-score on Chordin-like protein 2 (CHRDL2) for "COc1cc(CO)cc(I)c1O[C@H]1C=C(C(=O)NCCO)C[C@@H](NCc2ccc(F)cc2)[C@@H]1O" is 0.306

composite z-score on Chordin-like protein 2 (CHRDL2) for C=CCC(OC(C)=O)[C@@H]1[C@@H](N(Cc2cccc3ccccc23)C(=O)Cc2ccc(F)cc2)c2cc(OCCCO)ccc2N1C(=O)c1ccc2ccccc2n1 (some centres undefined) is 0.192
